- target.of.assay: Oseltamivir-sensitive A/California/12/2012 neuraminidase (Influenza A virus (H1N1pdm09), UniProt R4SI91)
- Format: biochemical
- condition.details: pH 6.5
assay.readout: IC50 (pM)
Numbers only, in pM.

Query: Bench note: what IC50 did CCC(CC)[C@H](NC(C)=O)[C@@H]1[C@H](O)[C@@H](C(=O)O)C[C@H]1N=C(N)N show?
Reply: 60

----------
Assignment: determine reported pIC50 for the given molecules.
- target.of.assay: A/Anhui/1/2013 (E2/S1) virus isolate neuraminidase (Influenza A virus (A/Anhui/1/2013(H7N9)), UniProt A0A024E3Q2)
- Assay type: biochemical
- condition.details: pH 6.5
Give bare numbers, as −log10 of the molar value.

compound_structure=CC(=O)N[C@H]1[C@H]([C@H](O)[C@H](O)CO)OC(C(=O)O)=C[C@@H]1N=C(N)N assay_readout=pIC50 measured_value=9.48

Query: Suppose we examine the molecule CO[C@@H]([C@@H]1OC(C(=O)O)=C[C@H](NC(=N)N)[C@H]1NC(C)=O)[C@H](O)CO ; what pIC50 value has been reported?
Reply: 9.34

----------
- target.of.assay: A/Anhui/1/2013 (E2/S1) virus isolate neuraminidase (Influenza A virus (A/Anhui/1/2013(H7N9)))
- Assay type: biochemical
- condition.details: pH 6.5; read-out: IC50
assay.readout: pIC50
Numbers only, as −log10 of the molar value.

Query: Which pIC50 is reported for this molecule? CCC(CC)[C@H](NC(C)=O)[C@@H]1[C@H](O)[C@@H](C(=O)O)C[C@H]1N=C(N)N [Peramivir, peramivir]
Reply: 10.22

----------
- target.of.assay: Oseltamivir-sensitive A/California/12/2012 neuraminidase (Influenza A virus (H1N1pdm09), UniProt R4SI91)
- Assay type: biochemical
- condition.details: pH 5.1
assay.readout: IC50 (nM)
One number for each entry, in nM.

Query: Requested field: IC50. Item: CCC(CC)[C@H](NC(C)=O)[C@@H]1[C@H](O)[C@@H](C(=O)O)C[C@H]1N=C(N)N [Peramivir, peramivir]
Reply: 0.07

Measured values drawn from paper PMC3810934 for this set.
